Values were extracted from PubChem BioAssay.

target: Short transient receptor potential channel 6 (Mus musculus) (UniProt Q61143); assay: activation of mouse TRPC6 channel, confirmation, selectivity assay for TRPC4 activator project, cell-based, HEK293, membrane potential dye, duplicate (AID 434950); settings: HEK293 TRPC6, membrane potential fluorescence, at 10 µM;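 on activation: 0% = buffer only wells and 100% = acetylcholine maximal-effect wells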
Sequence (Q61143 whole entry, looked up): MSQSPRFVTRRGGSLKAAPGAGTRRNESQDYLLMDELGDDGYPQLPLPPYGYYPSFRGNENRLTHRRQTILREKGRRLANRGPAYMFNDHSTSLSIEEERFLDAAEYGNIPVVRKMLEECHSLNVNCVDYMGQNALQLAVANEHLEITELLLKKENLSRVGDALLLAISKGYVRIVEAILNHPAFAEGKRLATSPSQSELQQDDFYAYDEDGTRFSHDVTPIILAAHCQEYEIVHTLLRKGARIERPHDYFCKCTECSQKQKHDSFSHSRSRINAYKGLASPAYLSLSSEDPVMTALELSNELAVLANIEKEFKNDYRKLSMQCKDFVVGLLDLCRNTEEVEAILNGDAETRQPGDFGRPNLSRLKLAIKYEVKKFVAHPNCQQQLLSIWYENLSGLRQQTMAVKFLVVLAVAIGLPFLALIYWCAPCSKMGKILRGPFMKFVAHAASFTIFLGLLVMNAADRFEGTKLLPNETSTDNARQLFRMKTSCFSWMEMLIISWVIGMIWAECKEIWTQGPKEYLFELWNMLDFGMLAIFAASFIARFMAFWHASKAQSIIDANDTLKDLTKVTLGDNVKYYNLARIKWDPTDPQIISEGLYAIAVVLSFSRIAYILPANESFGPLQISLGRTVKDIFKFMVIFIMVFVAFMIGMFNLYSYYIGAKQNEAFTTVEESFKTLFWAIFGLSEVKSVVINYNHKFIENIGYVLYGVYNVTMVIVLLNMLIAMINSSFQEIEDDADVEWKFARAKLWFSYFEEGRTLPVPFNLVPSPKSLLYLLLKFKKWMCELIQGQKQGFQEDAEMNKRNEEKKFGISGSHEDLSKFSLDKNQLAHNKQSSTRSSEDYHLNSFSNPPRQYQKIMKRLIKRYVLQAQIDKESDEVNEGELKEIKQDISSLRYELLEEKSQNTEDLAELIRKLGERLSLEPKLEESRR
Activity calls are given as the source filed them.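 How the source made its calls: active means membrane potential signal rise above negative control mean plus 3 SD in both duplicates, also active in the earlier TRPC4 screen; inactive means the rest.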
Thanks in advance; please answer with one of these: active, inactive

- Molecule: "COc1cc2c3cc1Oc1cc(ccc1O)C[C@@H]1c4c(cc(OC)c(O)c4Oc4ccc(cc4)C[C@H]3N(C)CC2)CCN1C"
  Group label: "active"
- Molecule: "Cc1ccc(NC(=S)NCCc2cnc[nH]2)cc1C"
  Group label: "inactive"
- Molecule: "COc1ccc(CNCCc2c[nH]c3ccccc23)c(OC)c1C"
  Group label: "active"
- Molecule: "CCOC(=O)C1(CCc2ccccc2)CCN(Cc2ccco2)CC1"
  Group label: "inactive"
- Molecule: "CCC1=Nc2cc(C(=O)N3CCC4(CC3)OCCO4)ccc2Sc2ccc(Br)cc21"
  Group label: "inactive"

Assay result, entry "Cc1ccc(Cl)cc1N1CCN(CCN)CC1" — outcome?
inactive

----------
test system: TRPC4 beta (transient receptor potential cation channel C4), mouse; test: activators of mouse TRPC4 channel, confirmation, cell-based, Fluo4 calcium, HEK293 TRPC4beta/mu-opioid, duplicates, 10 µM (AID 2426); conditions: Fluo4 calcium fluorescence, at 10 µM
The source made the active and inactive calls.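 How the source made its calls: active means fluorescence ratio normalized to control raised more than 50% in primary screen plus both repeat runs; inactive means the rest.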
Thanks in advance; please answer with one of these: label 1 (active), label 0 (inactive)

Here are 6 compounds together with their reported answers.
- Compound: "C#CCN1C(=O)C2(C(C#N)=C(N)OC(C)=C2C(=O)OCc2ccccc2)c2ccccc21 (stereo not given)"
  Group label: "label 0"
- Compound: "Cc1ccc(C)c(NC(=S)NCCc2cnc[nH]2)c1"
  Group label: "label 1"
- Compound: "Oc1c(Br)cc(Br)cc1CN1CCN(Cc2ccccc2)CC1"
  Group label: "label 0"
- Compound: "COC(=O)C1=CCCN(C)C1"
  Group label: "label 1"
- Compound: "COc1ccc(C(=O)C2CN(C)CC2c2ccc(Cl)cc2)cc1 (stereo not given)"
  Group label: "label 0"
- Compound: "c1ccc2nc(OCCN3CC3)ccc2c1"
  Group label: "label 0"

Assay result, entry "O=[N+]([O-])c1ccc(N2CCNCC2)c2ncccc12" — outcome?
label 1

Assay result, entry "CN1CCN(Cc2cc(=O)n3ccsc3n2)CC1" — outcome?
label 0

Assay result, entry Cc1ccc(CN2C3CCCC2CC(NC(=S)NCc2ccccc2)C3)cc1 (stereo not given) — outcome?
label 0

Assay result, entry "Cc1ccccc1CN1CCNCC1" — outcome?
label 0

Assay result, entry "CC[C@@H](CO)NC(=O)[C@@H]1C=C2c3cccc4c3c(cn4C)C[C@H]2N(C)C1" — outcome?
label 1

Assay result, entry CCCCc1ncc(CN2CCCC(C(=O)c3ccc(SC)cc3)C2)[nH]1 (stereo not given) — outcome?
label 0

Assay result, entry "O=[N+]([O-])c1ccc(N2CCNCC2)c(Cl)c1" — outcome?
label 0

Assay result, entry "Nc1cc(N2CCNCC2)ccc1[N+](=O)[O-]" — outcome?
label 1

Assay result, entry c1ccc2sc(C3CCCNC3)nc2c1 (stereo not given) — outcome?
label 1

Assay result, entry "Cc1nc2ccccn2c1P(=S)(N1CCCCC1)N1CCCCC1" — outcome?
label 1

Assay result, entry "CCOC(=O)c1cc(C)n(CCc2cnc[nH]2)c1C" — outcome?
label 1

Assay result, entry "CCc1n[nH]c(CCN)n1" — outcome?
label 1

Assay result, entry CC1(C)CC(CCNCc2ccc3c(c2)OCO3)(Cc2ccccc2)CCO1 (stereo not given) — outcome?
label 1

Assay result, entry COc1ccc(C(CNC(=O)CCc2ccsc2)N(C)C)cc1 (stereo not given) — outcome?
label 1

Assay result, entry "CCN(CC)CC(=O)Nc1ccc(Cl)cc1C(=O)c1ccccc1" — outcome?
label 0
